Target: T1, 4H3606-bN
T1 chain: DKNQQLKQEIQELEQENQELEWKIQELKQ
Assay: two-hybrid library CCNG1;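 also: natural log of median RNA to DNA barcode read ratio; higher means stronger binding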
READOUT TYPE: interaction score

Known interaction score results, listed for orientation:
BINDER | interaction score
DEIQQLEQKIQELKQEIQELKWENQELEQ [4H331-bN] | -0.132
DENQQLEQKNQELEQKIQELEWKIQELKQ [4H1446-bN] | -0.294
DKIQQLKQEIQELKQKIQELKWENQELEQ [4H2667-bN] | 0.163
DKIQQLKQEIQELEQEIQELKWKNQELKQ [4H2576-bN] | -0.101

a. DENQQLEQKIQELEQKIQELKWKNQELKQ [4H1328-bN]
b. DKNQQLEQEIQELKQKNQELEWKIQELEQ [4H3189-bN]
c. DKIQQLKQEIQELEQKNQELEWEIQELKQ [4H2610-bN]
Q: In this exercise, place the 3 binders in ascending sequence of their recorded interaction score. # list labels per requested ordering
Result: c, b, a
